Biological target: T1, human Y2 receptor (human, UniProt P49146 1-381)
T1 sequence (looked up): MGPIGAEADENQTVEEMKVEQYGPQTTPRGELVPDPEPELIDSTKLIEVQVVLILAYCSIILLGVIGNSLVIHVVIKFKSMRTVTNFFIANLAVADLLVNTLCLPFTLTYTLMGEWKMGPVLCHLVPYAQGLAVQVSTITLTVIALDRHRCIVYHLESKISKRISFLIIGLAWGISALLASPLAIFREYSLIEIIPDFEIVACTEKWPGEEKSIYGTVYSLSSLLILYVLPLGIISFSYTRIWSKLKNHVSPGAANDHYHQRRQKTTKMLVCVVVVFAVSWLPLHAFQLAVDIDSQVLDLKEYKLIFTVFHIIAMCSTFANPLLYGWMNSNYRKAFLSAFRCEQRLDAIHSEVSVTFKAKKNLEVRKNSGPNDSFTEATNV
Experiment: cell-based or functional assay
Non-standard residues stand in square brackets, D forms with d. *: point of attachment. Cha = N[C@@H](CC1CCCCC1)C(=O)O; Aib = CC(C)(N)C(=O)O; Carbamoyl = NC(=O)*
property.measured: GBA EC50 Ratio (vs PYY(3-36)), [35S]GTPγS (ratio)
One number for each entry, in ratio.

Memo: Carbamoyl-S[dP]RH[Cha][Cha]NL[Aib]TRQR[Cha]-NH2 (SMILES CC(C)C[C@H](NC(=O)[C@H](CC(N)=O)NC(=O)[C@H](CC1CCCCC1)NC(=O)[C@H](CC1CCCCC1)NC(=O)[C@H](Cc1c[nH]cn1)NC(=O)[C@H](CCCNC(=N)N)NC(=O)[C@H]1CCCN1C(=O)[C@H](CO)NC(N)=O)C(=O)NC(C)(C)C(=O)N[C@H](C(=O)N[C@@H](CCCNC(=N)N)C(=O)N[C@@H](CCC(N)=O)C(=O)N[C@@H](CCCNC(=N)N)C(=O)N[C@@H](CC1CCCCC1)C(N)=O)[C@@H](C)O, also called compound No. 130; Ureido-[D-Pro24,Cha27,28,36,Aib31]-PYY(23-36)) [Carbamoyl-[D-Pro24, Cha27,28,36, Aib31]-PYY(23-36)] , reported GBA EC50 Ratio (vs PYY(3-36)), [35S]GTPγS: 1
